Recorded koff for the following binders
Target: T1, human LAP-TGFB1 Fc fusion (human)
T1 construct: also called human LAP-TGFβ1-Fc; human LAP-TGFβ-Fc isoform 1
T1 sequence (chain, as listed by the source limits assumed): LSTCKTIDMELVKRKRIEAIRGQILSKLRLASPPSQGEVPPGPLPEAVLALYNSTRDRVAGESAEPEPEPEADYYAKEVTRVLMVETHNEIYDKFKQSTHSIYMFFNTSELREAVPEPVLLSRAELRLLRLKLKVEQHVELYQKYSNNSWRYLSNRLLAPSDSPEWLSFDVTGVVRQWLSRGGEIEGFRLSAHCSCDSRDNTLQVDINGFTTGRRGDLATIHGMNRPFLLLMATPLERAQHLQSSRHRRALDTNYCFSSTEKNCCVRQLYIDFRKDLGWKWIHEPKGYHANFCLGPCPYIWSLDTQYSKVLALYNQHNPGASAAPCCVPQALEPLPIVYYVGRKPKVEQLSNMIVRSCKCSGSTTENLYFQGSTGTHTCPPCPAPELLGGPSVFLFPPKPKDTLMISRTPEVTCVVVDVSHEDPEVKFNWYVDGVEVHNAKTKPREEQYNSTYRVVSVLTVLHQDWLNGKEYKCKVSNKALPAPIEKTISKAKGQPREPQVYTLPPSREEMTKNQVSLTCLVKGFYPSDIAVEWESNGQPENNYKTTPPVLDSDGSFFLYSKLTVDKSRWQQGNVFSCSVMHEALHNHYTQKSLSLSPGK
Assay: BLI off-rate screen
Entry rule: numbers only, all in s⁻¹.

{"Binder": "VH S31K (24BIT) (Fab, V domains shown, Light chain: parental 20E6 LC, implied) VH: EVQLVQSGAEVKKPGASVKVSCKASGYTFTKYWMHWVRQAPGQGLEWMGRIDPQSGGIKYAQKFQGRATLTVDTSTSTAYMELSRLRSDDTAVYYCARWDYGGYFDVWGQGTLVTVSS VL: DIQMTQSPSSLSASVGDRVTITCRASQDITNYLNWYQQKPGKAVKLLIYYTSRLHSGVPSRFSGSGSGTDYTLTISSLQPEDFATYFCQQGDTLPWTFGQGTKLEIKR", "Value Unit": "s⁻¹", "Value Reported": 0.037}
{"Binder": "VL R53I (34BIT) (Fab, V domains shown, Heavy chain: parental 20E6 Fab HC, implied; also called VL R531 (34BIT)) VH: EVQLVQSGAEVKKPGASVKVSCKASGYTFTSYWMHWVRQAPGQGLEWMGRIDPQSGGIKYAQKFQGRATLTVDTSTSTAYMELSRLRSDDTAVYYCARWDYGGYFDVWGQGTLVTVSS VL: DIQMTQSPSSLSASVGDRVTITCRASQDITNYLNWYQQKPGKAVKLLIYYTSILHSGVPSRFSGSGSGTDYTLTISSLQPEDFATYFCQQGDTLPWTFGQGTKLEIKR", "Value Unit": "s⁻¹", "Value Reported": 0.0246}

// below: koff requested for another binder
Please fill in: koff reported for VH G57D (27BIT) (Fab, V domains shown, Light chain: parental 20E6 LC, implied) VH: EVQLVQSGAEVKKPGASVKVSCKASGYTFTSYWMHWVRQAPGQGLEWMGRIDPQSGDIKYAQKFQGRATLTVDTSTSTAYMELSRLRSDDTAVYYCARWDYGGYFDVWGQGTLVTVSS VL: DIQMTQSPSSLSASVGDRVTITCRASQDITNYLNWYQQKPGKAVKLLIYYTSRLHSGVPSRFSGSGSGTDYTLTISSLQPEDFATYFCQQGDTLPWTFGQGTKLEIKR = 0.0337

From: patent US20230272056A1
